assay: qHTS assay for small molecule agonists of the p53 signaling pathway - cell viability (AID 651633); settings: p53RE-bla HCT-116 viability, ATP luminescence, 16 h; series mostly up to 83.3 µM; note: nearly all actives have a fitted effect of over 30% in size
Inconclusive results are not listed. The source made the active and inactive calls. Calls come from the whole dose curve.
Outcome codes: y (active), n (inactive)

* CCCN(CC)C(CC)C(=O)Nc1c(C)cccc1C (centres undefined) | n
* C[C@H](CSC(=O)c1ccccc1)C(=O)N1C[C@@H](Sc2ccccc2)C[C@H]1C(=O)O | n
* Cn1c(O)c(N=NC(N)=S)c2ccccc21 | n
* C=C1C(=O)O[C@H]2[C@H]1CC/C(C)=C\CC[C@@]1(C)O[C@@H]21 | y
* CCCCCCCCCCCCCCCCCCOP(=O)([O-])OC1CC[N+](C)(C)CC1 | n
* O=[N+]([O-])c1ccc(Oc2ccc(N=C=S)cc2)cc1 | n
* CC1CC(OC(=O)C(O)c2ccccc2)CC(C)(C)C1 (centres undefined) | n
* COc1ccc(CCNC[C@H](O)c2ccc(O)cc2)cc1OC | n
* NC(Cc1ccccc1)C(=O)O (centres undefined) | n
* C=C[C@]1(C)C[C@@H](OC(=O)CSCCN(CC)CC)[C@]2(C)[C@H](C)CC[C@]3(CCC(=O)[C@H]32)[C@@H](C)[C@@H]1O | n
* C[C@]12C=CC(=O)N[C@@H]1CC[C@@H]1[C@@H]2CC[C@]2(C)[C@@H](C(=O)Nc3cc(C(F)(F)F)ccc3C(F)(F)F)CC[C@@H]12 | n
* COc1cc2c(cc1OC)[C@@H](c1ccccc1)CN(C)CC2 | n
* COC(=O)[C@@H](N)CS | n
* CNC[C@@H]1CC[C@@H](N)[C@@H](O[C@H]2[C@H](O)[C@@H](O[C@H]3OC[C@](C)(O)[C@H](NC)[C@H]3O)[C@H](N)C[C@@H]2N)O1 | n
* CN(C)CCC=C1c2ccccc2C(C)(C)c2ccccc21 | n
* C[C@@H](O)[C@H]1C(=O)N2C(C(=O)[O-])=C(SC3Cn4cnc[n+]4C3)[C@H](C)[C@H]12 (some centres undefined) | n
* S=C1SCN(Cc2ccccc2)CN1Cc1ccccc1 | n
* CO[C@H]1C[C@@H]2CC[C@@H](C)[C@@](O)(O2)C(=O)C(=O)N2CCCC[C@H]2C(=O)O[C@H]([C@H](C)C[C@@H]2CC[C@@H](OCCO)[C@H](OC)C2)CC(=O)[C@H](C)/C=C(\C)[C@@H](O)[C@@H](OC)C(=O)[C@H](C)C[C@H](C)/C=C/C=C/C=C/1C | y
* NCc1ccccc1CC(=O)N[C@@H]1C(=O)N2C(C(=O)O)=C(CSc3nnnn3CC(=O)O)CS[C@H]12 | n

###

molecular target: Androgen receptor (Homo sapiens); experiment: qHTS assay to identify small molecule antagonists of the androgen receptor (AR) signaling pathway using the MDA cell line (AID 743042; note: nearly all actives have a fitted effect of over 55% in size); settings: MDA-kb2 AR-luc, MMTV luciferase, R1881 antagonist, 16 h; series mostly up to 70.3 µM
Inconclusive results are not listed. Active and inactive are the calls of the source. The call rests on the fitted dose curve; in most records, active means well fitted inhibition curve with a large enough effect in the repeat runs; inconclusive means weak or mixed curves, or effect the other way; inactive means no such curve, though single readings can be large or run the other way.
Outcome codes: true for active, false for inactive

- CCC(Cc1c(I)cc(I)c(O)c1I)C(=O)O (centres undefined): false
- CS(=O)(=O)OCC(O)C(O)COS(C)(=O)=O (centres undefined): false
- NC(=O)c1ccc[n+]([C@@H]2O[C@H](COP(=O)([O-])OP(=O)(O)OC[C@H]3O[C@@H](n4cnc5c(N)ncnc54)[C@H](O)[C@@H]3O)[C@@H](O)[C@H]2O)c1: false
- CO[C@H]1C[C@@H]2CC[C@@H](C)[C@@](O)(O2)C(=O)C(=O)N2CCCC[C@H]2C(=O)O[C@H]([C@H](C)C[C@@H]2CC[C@@H](OCCO)[C@H](OC)C2)CC(=O)[C@H](C)/C=C(\C)[C@@H](O)[C@@H](OC)C(=O)[C@H](C)C[C@H](C)/C=C/C=C/C=C/1C: true

###

assay: qHTS assay to identify small molecule antagonists of the thyroid receptor (TR) signaling pathway - cell viability counter screen (AID 743064); conditions: GH3.TRE-Luc viability, CellTiter-Fluor, 24 h; series mostly up to 70.3 µM; note: nearly all actives have a fitted effect of over 50% in size
Records with an inconclusive call do not appear. The source made the active and inactive calls. Calls follow the shape of the dose curve; as a rule, active = well fitted cell-killing curve with a large enough effect in the repeat runs; inconclusive = weak or mixed curves, or effect the other way; inactive = no such curve, though single readings can be large or run the other way.
Outcome codes: active, inactive

* C#C[C@]1(O)CC[C@H]2[C@@H]3CCC4=CC(=O)CC[C@@H]4[C@H]3C(=C)C[C@@]21CC | inactive
* CC(=O)N[C@@H](CC(=O)N[C@@H](CCC(=O)O)C(=O)O)C(=O)O | inactive
* CCCCCCCC(=O)CC[C@@H]1[C@@H](C/C=C\CCCC(=O)OC(C)C)[C@@H](O)C[C@H]1O | active
* NCCC(=O)[N-][C@@H](Cc1cnc[nH]1)C(=O)O.[Zn] | inactive
* Nc1nc2[nH]cc(CCc3ccc(C(=O)N[C@@H](CCC(=O)O)C(=O)O)cc3)c2c(=O)[nH]1 | inactive
* COC(=O)[C@@H](N)CS | inactive
* CC(C)[C@@H](C)/C=C/[C@@H](C)[C@H]1CC[C@H]2/C(=C/C=C3\C[C@@H](O)CC[C@@H]3C)CCC[C@]12C | inactive
* CN1[C@@H]2CCC[C@H]1CC(NC(=O)c1nn(C)c3ccccc13)C2 (some centres undefined) | inactive
* C=C1CC[C@H](O)CC1=C/C=C1\CCC[C@]2(C)[C@@H]([C@H](C)CCCC(C)(C)O)CC[C@@H]12 | active

###

assay: qHTS assay for small molecule agonists of the p53 signaling pathway - cell viability (AID 651633); conditions: p53RE-bla HCT-116 viability, ATP luminescence, 16 h; series mostly up to 83.3 µM; note: nearly all actives have a fitted effect of over 30% in size
Results filed as inconclusive are left out. The source made the active and inactive calls. Calls follow the shape of the full dose curve. Positions of bridges follow the written chain, without caps; N, C: chain ends. Residues, ends and D or L forms follow the SMILES beside them.
Measured endpoint: outcome

• CCCCCCCCCCCCCCCC(=O)OCC(COC(=O)CCCCCCCCCCCCCCC)OC(=O)CCCCCCCCCCCCCCC = inactive
• Cc1ncc(COP(=O)(O)O)c(CN)c1O = inactive
• NCCCC[C@H](NC(=O)[C@@H]1CCCN1C(=O)[C@@H]1CSSC[C@H](NC(=O)CNC(=O)CNC(=O)CN)C(=O)N[C@@H](Cc2ccc(O)cc2)C(=O)N[C@@H](Cc2ccccc2)C(=O)N[C@@H](CCC(N)=O)C(=O)N[C@@H](CC(N)=O)C(=O)N1)C(=O)NCC(N)=O (H-GGGCYFQNCPKG-NH2; disulfide 4-9) = inactive

###

test: qHTS assay for identifying genotoxic compounds that show differential cytotoxicity against isogenic chicken DT40 cell lines with known DNA damage response pathways - Rev3 mutant cell line (AID 743014); details: chicken DT40 Rev3-/- viability, CellTiter-Glo, 40 h; series mostly up to 68.4 µM; note: nearly all actives have a fitted effect of over 55% in size
Results filed as inconclusive are left out. Activity calls are given as the source filed them. Calls follow the shape of the dose curve; as a rule, active = well fitted cell-killing curve with a large enough effect in the repeat runs; inconclusive = weak or mixed curves, or effect the other way; inactive = no such curve, though single readings can be large or run the other way. Positions of bridges follow the written chain, without caps; N, C: chain ends. Residues, ends and D or L forms follow the SMILES beside them.
Outcome codes: true (1) for active, false (0) for inactive

- NCCCC[C@H](NC(=O)[C@@H]1CCCN1C(=O)[C@@H]1CSSC[C@H](NC(=O)CNC(=O)CNC(=O)CN)C(=O)N[C@@H](Cc2ccc(O)cc2)C(=O)N[C@@H](Cc2ccccc2)C(=O)N[C@@H](CCC(N)=O)C(=O)N[C@@H](CC(N)=O)C(=O)N1)C(=O)NCC(N)=O (H-GGGCYFQNCPKG-NH2; disulfide 4-9): false (0)
- CCN(CC)Cc1cc(Nc2ccnc3cc(Cl)ccc23)ccc1O: true (1)
- COC1=C(C(=O)O)N2C(=O)[C@@H](NC(=O)[C@H](N)C3=CCC=CC3)[C@H]2SC1: false (0)
- O=C1/C(=C\c2cccs2)CCC/C1=C\c1cccs1: true (1)
- NC[C@@H]1O[C@H](O[C@H]2[C@@H](O)[C@H](O[C@@H]3[C@@H](O)[C@H](N)C[C@H](N)[C@H]3O[C@H]3O[C@H](CN)[C@@H](O)[C@H](O)[C@H]3N)O[C@@H]2CO)[C@H](N)[C@@H](O)[C@@H]1O: false (0)
- CC#CCC(C)[C@H](O)/C=C/[C@@H]1[C@H]2C/C(=C/CCCC(=O)O)C[C@H]2C[C@H]1O (stereo partly drawn): false (0)
- COc1ccc2c(=O)c(C)c(-c3ccccc3)oc2c1CN(C)C: false (0)
- CN[C@@H]1[C@H](O[C@H]2[C@H](O[C@H]3[C@H](O)[C@@H](O)[C@H](N=C(N)N)[C@@H](O)[C@@H]3N=C(N)N)O[C@@H](C)[C@]2(O)CO)O[C@@H](CO)[C@H](O)[C@H]1O: false (0)
- CCCCCCCCCCCCCCCCCCCCCCO: false (0)
- S=C1SCN(Cc2ccccc2)CN1Cc1ccccc1: true (1)
- OC[C@H]1OC([S-])[C@H](O)[C@@H](O)[C@@H]1O.[Au+] (stereo partly drawn): false (0)
- CCCCCC(O)/C=C/C=O (stereo not drawn): false (0)
- COc1ccc(C(=O)CCC(=O)O)c2ccccc12: false (0)
- Cc1cc(Nc2ccccc2C(=O)O)ccc1Cl: true (1)
- C[C@]12C=CC(=O)C=C1CC[C@@H]1[C@@H]2[C@@H](O)C[C@@]2(C)[C@H]1CC[C@]2(O)C(=O)COC(=O)CCC(=O)O: false (0)
- CC(O)CN(C)C (stereo not drawn): false (0)
- [O]=[Bi][O][Bi]=[O]: false (0)
- CCCCCCCCCCCCCCCCCC(=O)OCCO: false (0)
